# TARGET OF ASSAY: HDAC3/NCor2 (Homo sapiens (Human))
# Sequence (O15379 whole entry): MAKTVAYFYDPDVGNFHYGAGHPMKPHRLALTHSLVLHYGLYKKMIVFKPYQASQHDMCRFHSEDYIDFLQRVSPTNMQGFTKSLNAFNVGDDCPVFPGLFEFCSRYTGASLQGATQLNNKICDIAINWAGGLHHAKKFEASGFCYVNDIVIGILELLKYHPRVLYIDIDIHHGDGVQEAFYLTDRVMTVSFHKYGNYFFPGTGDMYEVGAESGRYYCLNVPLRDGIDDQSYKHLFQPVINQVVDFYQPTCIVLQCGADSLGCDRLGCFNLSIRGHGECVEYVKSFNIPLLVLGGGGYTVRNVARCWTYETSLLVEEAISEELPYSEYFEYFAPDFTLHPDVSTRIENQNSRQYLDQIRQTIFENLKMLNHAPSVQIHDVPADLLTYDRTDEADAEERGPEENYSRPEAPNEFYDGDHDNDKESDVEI
# Sequence (Q9Y618 395-489 partner): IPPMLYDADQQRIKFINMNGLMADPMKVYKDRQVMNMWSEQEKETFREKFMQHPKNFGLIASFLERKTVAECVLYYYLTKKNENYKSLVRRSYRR
# PROCEDURE SUMMARY: HDAC3 inhibition, Fluor de Lys fluorescent enzyme assay
# Assay type: biochemical
# STUDY CONDITIONS: 3 hours pre-incubation at room temp; 1.2 nM enzyme; 16 μM Fluor de Lys substrate; duplicate
# maps each entry to its IC50

Recorded results for 5 molecules are shown here.
CCS(=N)(=O)c1ccc(C(=O)Nc2cc(-c3ccc(F)cc3)ccc2N)cc1 (centres unmarked)
500 to 2000 nM
CS(=N)(=O)c1ccc2sc(C(=O)Nc3cc(-c4ccc(F)cc4)ccc3N)cc2c1 (centres unmarked)
500 to 2000 nM
CS(=N)(=O)c1ccc(C(=O)Nc2cc(-c3ccc(F)cc3)ccc2N)s1 (centres unmarked)
100 to 500 nM
N=S(=O)(c1ccc(C(=O)Nc2cc(-c3ccc(F)cc3)ccc2N)cn1)C1CC1 (centres unmarked)
500 to 2000 nM
Cc1ccc(S(=N)(=O)c2ccc(C(=O)Nc3cc(-c4ccc(F)cc4)ccc3N)cc2)cn1 (centres unmarked)
500 to 2000 nM

Alright, here's another molecule for you.
I looked up C[S@](=N)(=O)c1ccc(C(=O)Nc2cc(-c3ccc(F)s3)ccc2N)cc1 and its IC50 for HDAC3/NCor2 (Homo sapiens (Human)) was 500 to 2000 nM
